tested-target: NR1-1a/NR2B NMDA receptor (Rattus norvegicus, UniProt P35439+Q00960)
Construct: expressed in transfected cells; host or cells: HEK293 cells (ATCC CRL1573)
Sequence (Q00960 27-1482, other chains not shown): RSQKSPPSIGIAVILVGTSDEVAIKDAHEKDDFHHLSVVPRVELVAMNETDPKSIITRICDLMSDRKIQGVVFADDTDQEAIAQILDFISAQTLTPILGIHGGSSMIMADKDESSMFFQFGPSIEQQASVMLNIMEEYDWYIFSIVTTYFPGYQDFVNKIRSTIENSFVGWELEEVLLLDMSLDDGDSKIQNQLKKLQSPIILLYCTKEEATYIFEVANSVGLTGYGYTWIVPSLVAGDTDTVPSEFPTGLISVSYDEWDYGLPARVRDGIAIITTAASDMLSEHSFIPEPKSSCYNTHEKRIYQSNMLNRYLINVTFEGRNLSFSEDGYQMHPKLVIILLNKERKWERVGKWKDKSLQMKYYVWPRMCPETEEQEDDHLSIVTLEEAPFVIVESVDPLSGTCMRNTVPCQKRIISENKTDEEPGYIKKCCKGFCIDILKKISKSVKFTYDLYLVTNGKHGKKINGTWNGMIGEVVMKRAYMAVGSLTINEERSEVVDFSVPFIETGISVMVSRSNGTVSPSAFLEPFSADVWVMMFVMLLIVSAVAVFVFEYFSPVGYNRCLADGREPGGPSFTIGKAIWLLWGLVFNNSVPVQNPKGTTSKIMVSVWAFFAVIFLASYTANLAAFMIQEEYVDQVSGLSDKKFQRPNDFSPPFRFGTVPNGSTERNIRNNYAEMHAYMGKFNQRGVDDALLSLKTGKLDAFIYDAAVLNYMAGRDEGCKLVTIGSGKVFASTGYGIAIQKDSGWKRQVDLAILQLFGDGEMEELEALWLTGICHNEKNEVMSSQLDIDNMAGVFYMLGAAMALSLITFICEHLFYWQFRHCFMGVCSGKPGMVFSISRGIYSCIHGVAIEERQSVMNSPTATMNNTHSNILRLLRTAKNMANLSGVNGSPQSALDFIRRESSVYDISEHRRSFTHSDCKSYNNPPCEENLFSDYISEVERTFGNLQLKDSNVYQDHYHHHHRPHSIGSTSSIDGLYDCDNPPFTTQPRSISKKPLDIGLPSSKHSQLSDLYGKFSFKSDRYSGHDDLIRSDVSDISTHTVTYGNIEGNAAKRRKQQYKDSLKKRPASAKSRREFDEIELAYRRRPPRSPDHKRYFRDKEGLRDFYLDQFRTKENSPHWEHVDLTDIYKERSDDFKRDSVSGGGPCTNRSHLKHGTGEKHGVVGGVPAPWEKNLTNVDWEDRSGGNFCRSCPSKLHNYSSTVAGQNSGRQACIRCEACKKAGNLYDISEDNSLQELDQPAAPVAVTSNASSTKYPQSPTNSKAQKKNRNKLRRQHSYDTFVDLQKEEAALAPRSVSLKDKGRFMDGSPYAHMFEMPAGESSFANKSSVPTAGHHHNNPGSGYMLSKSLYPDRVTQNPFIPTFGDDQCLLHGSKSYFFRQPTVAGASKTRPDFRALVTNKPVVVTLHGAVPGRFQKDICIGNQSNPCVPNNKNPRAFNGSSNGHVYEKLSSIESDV
method-notes: Patch-clamp inhibition of glutamate-evoked currents at recombinant NMDA receptors in transfected HEK293 cells
Format: cell-based
test-conditions: HEK293, read-out: Mean % change ± SD
assay-metric: inhibition at 1 µM (%)
Use % as the unit, but write only the number.

-- ask Using the record for C[C@@]12CCC[C@H]1[C@@H]1CC[C@@H]3C[C@H](OC(=O)[C@@H](N)CCC(=O)O)CC[C@]3(C)[C@H]1CC2 , report its inhibition at 1 µM.
-- reply 36.7

-- ask What about C[C@H]1CC[C@H]2[C@@H]3CC[C@@H]4C[C@H](NC(=O)CC(=O)O)CC[C@]4(C)[C@H]3CC[C@]12C ?
-- reply 17.8

-- ask C[C@H]1CC[C@H]2[C@@H]3CC[C@@H]4C[C@H](NC(=O)C(=O)[O-])CC[C@]4(C)[C@H]3CC[C@]12C.[Na+] ?
-- reply 17.5

-- ask Repeat with C[C@@]12CCC[C@H]1[C@@H]1CC[C@@H]3C[C@H](OC(=O)CCC[N+](C)(C)C)CC[C@]3(C)[C@H]1CC2
-- reply 34

-- ask Please answer likewise for CC[C@@H](C)C1CC[C@H]2[C@@H]3CC[C@@H]4C[C@H](NC(=O)C(=O)[O-])CC[C@]4(C)[C@H]3CC[C@]12C.[Na+] (some centres unmarked)
-- reply 7.3

Value source: patent US10017535B2
